Tested on: antisera to AZT, Rabbit 1 (immunized with AZT-3-V:BSA)
Assay: FPIA comparison of tracers, antiserum of Rabbit 1 (Table 1)
Assay type: binding
Conditions: concentration of AZT giving 50% reduction in polarization of this tracer relative to 0 tube
Rule for this label: True means ED50 AZT is less than 2 µg/mL; False means ED50 AZT is at least 2 µg/mL.

Below, 5 compounds whose answers are already recorded.
For Cc1cn([C@H]2C[C@H](N=[N+]=[N-])[C@@H](CO)O2)c(=O)n(CCCC(=O)NCCNC(=S)Nc2ccc3c(c2)C(=O)OC32c3ccc(O)cc3Oc3cc(O)ccc32)c1=O [Example 15] , is the recorded ED50 AZT below the cut-off of 2 µg/mL?
False

Lab note: confirm whether the reported ED50 AZT for this compound is below 2 µg/mL, equality not counting. compound: Cc1cn([C@H]2C[C@H](N=[N+]=[N-])[C@@H](CO)O2)c(=O)n(CCNC(=S)Nc2ccc3c(c2)C(=O)OC32c3ccc(O)cc3Oc3cc(O)ccc32)c1=O [Example 29]
False

Strictly below 2 µg/mL: is that where ED50 AZT of COc1nc(NCCn2c(=O)c(C)cn([C@H]3C[C@H](N=[N+]=[N-])[C@@H](CO)O3)c2=O)nc(Nc2ccc3c(c2)C(=O)OC32c3ccc(O)cc3Oc3cc(O)ccc32)n1 [Example 17] sits?
False

Please state whether ED50 AZT is below 2 µg/mL for Cc1cn([C@H]2C[C@H](N=[N+]=[N-])[C@@H](CO)O2)c(=O)n(CCNc2nc(Cl)nc(Nc3ccc4c(c3)C(=O)OC43c4ccc(O)cc4Oc4cc(O)ccc43)n2)c1=O [AZT--(CH2)n --NH:DTAF, n=2]
False

Answer whether the compound Cc1cn([C@H]2C[C@H](N=[N+]=[N-])[C@@H](CO)O2)c(=O)n(CC(=O)NCCNC(=S)Nc2ccc3c(c2)C(=O)OC32c3ccc(O)cc3Oc3cc(O)ccc32)c1=O [Example 23] has ED50 AZT strictly less than 2 µg/mL
False

Next:
Quick check: ED50 AZT of Cc1cn([C@H]2C[C@H](N=[N+]=[N-])[C@@H](CO)O2)c(=O)n(CCCCC(=O)Nc2ccc3c(c2)C(=O)OC32c3ccc(O)cc3Oc3cc(O)ccc32)c1=O [Example 6] under 2 µg/mL?
False

---

A collection of molecules and their measured ED50 AZT
Tested on: antisera to AZT, Rabbit 2 (immunized with AZT-3-V:BSA)
Assay: FPIA comparison of tracers, antiserum of Rabbit 2 (Table 1)
Format: binding
Details: concentration of AZT giving 50% reduction in polarization of this tracer relative to 0 tube
Description: The immunogen (1 mg in 1 ml) was emulsified with an equal volume of Freund's Complete Adjuvant and injected intradermally into each of two female albino rabbits. The process was repeated in two weeks. […] Fluorescence Polarization Immunoassay for AZT […] (4) After an appropriate incubation time, the polarization of each reaction mixture was determined using a polarization spectrofluorimeter. […]
The figure you give is taken to be in µg/mL; do not add the unit.

In the examples that follow, each entry is paired with its recorded ED50 AZT.
Memo: `Cc1cn([C@H]2C[C@H](N=[N+]=[N-])[C@@H](CO)O2)c(=O)n(CCCC(=O)Nc2ccc3c(c2)C2(OC3=O)c3ccc(O)cc3Oc3cc(O)ccc32)c1=O` , reported ED50 AZT: 1.4

Measured ED50 AZT of `Cc1cn([C@H]2C[C@H](N=[N+]=[N-])[C@@H](CO)O2)c(=O)n(CCCC(=O)Nc2ccc3c(c2)C(=O)OC32c3ccc(O)cc3Oc3cc(O)ccc32)c1=O` : 3.9

Further cases:
Entry under test: `Cc1cn([C@H]2C[C@H](N=[N+]=[N-])[C@@H](CO)O2)c(=O)n(CC(=O)NCCNC(=S)Nc2ccc3c(c2)C(=O)OC32c3ccc(O)cc3Oc3cc(O)ccc32)c1=O` . Its ED50 AZT was 1.4

For reference, reported ED50 AZT for `Cc1cn([C@H]2C[C@H](N=[N+]=[N-])[C@@H](CO)O2)c(=O)n(CCCCC(=O)Nc2ccc3c(c2)C(=O)OC32c3ccc(O)cc3Oc3cc(O)ccc32)c1=O` stands at 8.0

---

# Polarization Units (P × 1000) values compiled below
Test system: antisera to AZT, Rabbit 1 (immunized with AZT-3-V:BSA)
Assay: FPIA comparison of tracers, antiserum of Rabbit 1 (Table 1)
Assay type: binding
Conditions: 1 pmole of tracer, antiserum at the given titer
Just the number please, in P × 1000, no unit attached.

Entry `Cc1cn([C@H]2C[C@H](N=[N+]=[N-])[C@@H](CO)O2)c(=O)n(CCCC(=O)Nc2ccc3c(c2)C(=O)OC32c3ccc(O)cc3Oc3cc(O)ccc32)c1=O` ; Polarization Units (P × 1000) = 170

Reported Polarization Units (P × 1000) of `Cc1cn([C@H]2C[C@H](N=[N+]=[N-])[C@@H](CO)O2)c(=O)n(CC(=O)Nc2ccc3c(c2)C(=O)OC32c3ccc(O)cc3Oc3cc(O)ccc32)c1=O` : 164

// Polarization Units (P × 1000) lookup, compound = `Cc1cn([C@H]2C[C@H](N=[N+]=[N-])[C@@H](CO)O2)c(=O)n(CCCC(=O)Nc2ccc3c(c2)C2(OC3=O)c3ccc(O)cc3Oc3cc(O)ccc32)c1=O` , result: 167

Continuing:
Looking up `Cc1cn([C@H]2C[C@H](N=[N+]=[N-])[C@@H](CO)O2)c(=O)n(CCCC(=O)NCCNC(=S)Nc2ccc3c(c2)C(=O)OC32c3ccc(O)cc3Oc3cc(O)ccc32)c1=O` , I see its Polarization Units (P × 1000) listed as 165

Polarization Units (P × 1000) for `Cc1cn([C@H]2C[C@H](N=[N+]=[N-])[C@@H](CO)O2)c(=O)n(CCNc2nc(Cl)nc(Nc3ccc4c(c3)C(=O)OC43c4ccc(O)cc4Oc4cc(O)ccc43)n2)c1=O` is 162

Value of measured Polarization Units (P × 1000) for the entry `Cc1cn([C@H]2C[C@H](N=[N+]=[N-])[C@@H](CO)O2)c(=O)n(CCCNC(=S)Nc2ccc3c(c2)C(=O)OC32c3ccc(O)cc3Oc3cc(O)ccc32)c1=O` : 159

The recorded Polarization Units (P × 1000) for entry `Cc1cn([C@H]2C[C@H](N=[N+]=[N-])[C@@H](CO)O2)c(=O)n(CCNC(=S)Nc2ccc3c(c2)C(=O)OC32c3ccc(O)cc3Oc3cc(O)ccc32)c1=O` equals 180

Record `COc1nc(NCCn2c(=O)c(C)cn([C@H]3C[C@H](N=[N+]=[N-])[C@@H](CO)O3)c2=O)nc(Nc2ccc3c(c2)C(=O)OC32c3ccc(O)cc3Oc3cc(O)ccc32)n1` , field Polarization Units (P × 1000): 160

Form field Polarization Units (P × 1000), entry `Cc1cn([C@H]2C[C@H](N=[N+]=[N-])[C@@H](CO)O2)c(=O)n(CCCNc2nc(Cl)nc(Nc3ccc4c(c3)C(=O)OC43c4ccc(O)cc4Oc4cc(O)ccc43)n2)c1=O` : 171

The reported value for `COc1nc(NCCCn2c(=O)c(C)cn([C@H]3C[C@H](N=[N+]=[N-])[C@@H](CO)O3)c2=O)nc(Nc2ccc3c(c2)C(=O)OC32c3ccc(O)cc3Oc3cc(O)ccc32)n1` in terms of Polarization Units (P × 1000) is 179

Entry under test: `Cc1cn([C@H]2C[C@H](N=[N+]=[N-])[C@@H](CO)O2)c(=O)n(CC(=O)NCCNC(=S)Nc2ccc3c(c2)C(=O)OC32c3ccc(O)cc3Oc3cc(O)ccc32)c1=O` . Its Polarization Units (P × 1000) was 173

Entry `Cc1cn([C@H]2C[C@H](N=[N+]=[N-])[C@@H](CO)O2)c(=O)n(CCCCC(=O)Nc2ccc3c(c2)C(=O)OC32c3ccc(O)cc3Oc3cc(O)ccc32)c1=O` — recorded Polarization Units (P × 1000) = 179

---

Test system: antisera to AZT, Rabbit 1 (immunized with AZT-3-V:BSA)
Assay: FPIA comparison of tracers, antiserum of Rabbit 1 (Table 1)
Assay type: binding
Settings: concentration of AZT giving 50% reduction in polarization of this tracer relative to 0 tube
assayReadout: ED50 AZT (µg/mL)
Numeric answer only, unit µg/mL assumed.

ED50 AZT measured on `Cc1cn([C@H]2C[C@H](N=[N+]=[N-])[C@@H](CO)O2)c(=O)n(CCCNc2nc(Cl)nc(Nc3ccc4c(c3)C(=O)OC43c4ccc(O)cc4Oc4cc(O)ccc43)n2)c1=O` = 2.0

Item: `Cc1cn([C@H]2C[C@H](N=[N+]=[N-])[C@@H](CO)O2)c(=O)n(CC(=O)Nc2ccc3c(c2)C(=O)OC32c3ccc(O)cc3Oc3cc(O)ccc32)c1=O` | ED50 AZT: 1.4

Measured ED50 AZT of `Cc1cn([C@H]2C[C@H](N=[N+]=[N-])[C@@H](CO)O2)c(=O)n(CCCC(=O)Nc2ccc3c(c2)C(=O)OC32c3ccc(O)cc3Oc3cc(O)ccc32)c1=O` : 1.3

Notebook: `COc1nc(NCCCn2c(=O)c(C)cn([C@H]3C[C@H](N=[N+]=[N-])[C@@H](CO)O3)c2=O)nc(Nc2ccc3c(c2)C(=O)OC32c3ccc(O)cc3Oc3cc(O)ccc32)n1` , ED50 AZT read as 3.1

Next molecule, ED50 AZT to be filled in.
Entry `Cc1cn([C@H]2C[C@H](N=[N+]=[N-])[C@@H](CO)O2)c(=O)n(CCCC(=O)Nc2ccc3c(c2)C2(OC3=O)c3ccc(O)cc3Oc3cc(O)ccc32)c1=O` ; ED50 AZT = 0.6
